Values compiled from PubChem BioAssay AID330.

Measured T/C, listed per entry for reference.
# Tested on: P388 leukemia ip, CD2F1 mice, survival T/C
# measurement_description: NCI In Vivo Anticancer Drug Screen. Data for tumor model P388 Leukemia (intraperitoneal) in CD2F1 (CDF1) mice
# condition_info: endpoint: median survival time; dose: 100.0 mg/kg/injection; schedule: Q01DX009 (ip); vehicle: Klucel (hydroxypropylcellulose) (HPC); higher = longer survival
# Protocol: The antitumor activity of compounds was measured in mice bearing transplantable tumors. Survival or tumor size were measured and the results are expressed as the measurement made in the treated group (T) divided by the measurement made in the vehicle treated control group (C). The tumor model used in this assay is P388 Leukemia (intraperitoneal) in CD2F1 (CDF1) mice
Inconclusive results and toxic doses are left out.
assay_readout: T/C

molecule	result
CC(=O)N=c1sccn1CC(O)c1ccccc1 (centres undefined)	99 % of control
CC(=O)Nc1ccc(C(=O)O)c([N+](=O)[O-])c1	102 % of control
CCCCCCC(=O)Nc1ncc([N+](=O)[O-])s1	106 % of control
Cc1ccc(S(=O)(=O)N/N=C/c2ccccc2)cc1	95 % of control
Cn1ncc2c(Cl)ncnc21	93 % of control
C=C(COCNc1ccc(Cl)cc1Cl)C(=O)O	89 % of control
CCOC(=O)N1CC2C=CC1C(C(=O)OC)=C2C(=O)OC (centres undefined)	113 % of control
OC1(CC2CO2)CCCc2ccccc21 (centres undefined)	91 % of control
C=CCSc1nc2ccc(NC(=O)CCC(=O)O)cc2s1	111 % of control
COc1cc(/C=N/NC(=O)C(=O)N/N=C/c2cc(OC)c(OC)c(OC)c2)cc(OC)c1OC	95 % of control
O=S(=O)(NCCSSCCNS(=O)(=O)c1ccc(F)cc1)c1ccc(F)cc1	90 % of control
CN(C)c1nc(N)nc(N)n1	100 % of control
CCN=C(Cl)N(C)c1ccccc1	95 % of control
O=S(=O)(c1ccc(NC(=S)NC23CC4CC(CC(C4)C2)C3)cc1)N1CCCCC1	93 % of control
Nc1ccccc1.O=C([CH-]C(=O)C(F)(F)F)c1ccccc1.O=C([CH-]C(=O)C(F)(F)F)c1ccccc1.O=C([CH-]C(=O)C(F)(F)F)c1ccccc1.O=C([CH-]C(=O)C(F)(F)F)c1ccccc1.[Eu+3]	100 % of control
O=C1OC(=O)C2C3C=CC(C4C=CC43)C12 (centres undefined)	115 % of control
CS(=O)(=O)OCCOS(C)(=O)=O	92 % of control
CCn1c(=O)n(C)c(=O)c2[nH]c(Cl)nc21	94 % of control
CN(C)c1ccc(C=NCCCN2CCN(CCCN=Cc3ccc(N(C)C)cc3)CC2)cc1	112 % of control
O=C1NC(=O)C(SSC2C(=O)NC(=O)NC2=O)C(=O)N1	95 % of control
C=C1C(=O)OC2CC1C(OC(=O)/C=C/c1ccccc1)C/C(C)=C/CC/C(C)=C/CCC2(C)O (centres undefined)	110 % of control
NC(N)=NCC(NS(=O)(=O)c1ccccc1)C(=O)O (centres undefined)	111 % of control
NCP(=O)(CN)CN	100 % of control
CC(=O)NNc1ccc(Cl)cc1[N+](=O)[O-]	101 % of control

====

# Tested on: P388 leukemia ip, CD2F1 mice, survival T/C
# measurement_description: NCI In Vivo Anticancer Drug Screen. Data for tumor model P388 Leukemia (intraperitoneal) in CD2F1 (CDF1) mice
# condition_info: endpoint: median survival time; dose: 100.0 mg/kg/injection; schedule: Q01DX009 (ip); vehicle: saline sonified; higher = longer survival
Toxic doses and inconclusive results are not listed.
Measured T/C, listed per entry for reference.
assay_readout: T/C

>>> df
                                   molecule  assay_readout            result
0               N#C/C(C(=S)S)=C(/O)c1ccccc1            T/C  100 % of control
1  N#CCC(O)(/C=C/c1ccccc1)c1ccccc1 (centres undefined)            T/C   91 % of control
2  CC(=O)c1cc2c(cc1C(C)C)CC[C@H]1[C@](C)(C#N)CCC[C@]21C            T/C   90 % of control
3                 Nc1cnc2nc(N)[nH]c(=O)c2c1            T/C  120 % of control

====

# Test system: P388 leukemia ip, CD2F1 mice, survival T/C
# measurement_description: NCI In Vivo Anticancer Drug Screen. Data for tumor model P388 Leukemia (intraperitoneal) in CD2F1 (CDF1) mice
# condition_info: endpoint: median survival time; dose: 50.0 mg/kg/injection; schedule: Q01DX009 (ip); vehicle: saline with Tween-80; higher = longer survival
Toxic doses and inconclusive results are not listed.
assay_readout: T/C

                                    molecule                             tested_target            result
 0  CCC[CH2][Sn]([CH2]CCC)([CH2]CCC)[C]1(CCCC2CO2)SCCCS1 (stereo not drawn)  P388 leukemia ip, CD2F1 mice, survival T/C  108 % of control
 1  CCN(CC)Cc1cc(C)c(O)c(N=Nc2ccc3c(c2)c2ccccc2n3CC)c1C  P388 leukemia ip, CD2F1 mice, survival T/C  102 % of control
 2                Clc1ccc2c(c1)Oc1ccccc1C=N2  P388 leukemia ip, CD2F1 mice, survival T/C  107 % of control
 3     CN1CCN(Cc2ncc(C3CCCCC3)c(=O)[nH]2)CC1  P388 leukemia ip, CD2F1 mice, survival T/C  102 % of control
 4           O=C(N/N=C/c1ccccc1O)C(=O)NC1CC1  P388 leukemia ip, CD2F1 mice, survival T/C   92 % of control
 5  O=C1OCC/C1=C1/NC2CCCCC2NC1=O (stereo not drawn)  P388 leukemia ip, CD2F1 mice, survival T/C   94 % of control
 6                         O=C1CCCC12CCCC2=O  P388 leukemia ip, CD2F1 mice, survival T/C  103 % of control
 7                   O=C(O)/C(Br)=C/c1ccccc1  P388 leukemia ip, CD2F1 mice, survival T/C   87 % of control
 8  CC1(CO)CSC(Nc2ccc(F)cc2)=N1 (stereo not drawn)  P388 leukemia ip, CD2F1 mice, survival T/C  104 % of control
 9                       COc1ncc[n+]([O-])n1  P388 leukemia ip, CD2F1 mice, survival T/C  103 % of control
10     Cc1cc(Br)c(OC(=O)Nc2cccc(Cl)c2Cl)cc1C  P388 leukemia ip, CD2F1 mice, survival T/C   88 % of control
11                         O=S(=O)(CCl)NCCCl  P388 leukemia ip, CD2F1 mice, survival T/C  100 % of control
12            Cc1ccc(N=C(Cl)Nc2ccc(C)cc2)cc1  P388 leukemia ip, CD2F1 mice, survival T/C  105 % of control
13                       Cc1ccc(N=NN(C)C)cc1  P388 leukemia ip, CD2F1 mice, survival T/C  122 % of control
14  COC1CCC(COS(=O)(=O)c2ccc(C)cc2)O1 (stereo not drawn)  P388 leukemia ip, CD2F1 mice, survival T/C  105 % of control
15  O=C(Cn1cnc2c(=S)nc[nH]c21)Oc1ccc([N+](=O)[O-])cc1  P388 leukemia ip, CD2F1 mice, survival T/C  100 % of control
16                     Nc1nc(Cl)c2[nH]cnc2n1  P388 leukemia ip, CD2F1 mice, survival T/C  108 % of control
17      CCCN(CCC)c1ccc(N=Nc2ccccc2C(=O)O)cc1  P388 leukemia ip, CD2F1 mice, survival T/C  102 % of control
18  OC(Nc1ncccn1)C(Cl)(Cl)Cl (stereo not drawn)  P388 leukemia ip, CD2F1 mice, survival T/C  104 % of control
19  O=C1c2ccccc2C2N1CCC1CCc3ccccc3N12 (stereo not drawn)  P388 leukemia ip, CD2F1 mice, survival T/C   92 % of control
20  CC(=O)OC1CCC2(C)C(C1)CC(OC(C)=O)C1C2CC(OC(C)=O)C2(C)C(C(C)CC(=O)C(=O)c3ccccc3)CCC12 (stereo not drawn)  P388 leukemia ip, CD2F1 mice, survival T/C  103 % of control
21                      NNc1cccc(C(F)(F)F)c1  P388 leukemia ip, CD2F1 mice, survival T/C   95 % of control
22     O=C(c1ccccc1)c1ccc(NC(=O)C(F)(F)F)cc1  P388 leukemia ip, CD2F1 mice, survival T/C   88 % of control
23   CSc1nc(=O)c(=O)nc(Nc2ccccc2)n1-c1ccccc1  P388 leukemia ip, CD2F1 mice, survival T/C   86 % of control
24  C=C1C(=O)OC2/C=C(\C)CC(O)/C=C(\C)CC(OC(=O)/C(=C\C)COC(C)=O)C12 (stereo not drawn)  P388 leukemia ip, CD2F1 mice, survival T/C  104 % of control
25  CCS(=O)(=O)CCN1C(=O)CN=C(c2ccccc2F)c2cc(Cl)ccc21  P388 leukemia ip, CD2F1 mice, survival T/C  103 % of control
26                             CCCCOCC(=O)OC  P388 leukemia ip, CD2F1 mice, survival T/C  102 % of control
27                 O=C1CSC(=O)N1c1cccc(Cl)c1  P388 leukemia ip, CD2F1 mice, survival T/C  106 % of control
28          CCN(C)c1cc(=O)c2c(ccc3ccccc32)o1  P388 leukemia ip, CD2F1 mice, survival T/C   94 % of control
29  Clc1ccccc1CSCc1c(CSCc2ccccc2Cl)c(CSCc2ccccc2Cl)c(CSCc2ccccc2Cl)c(CSCc2ccccc2Cl)c1CSCc1ccccc1Cl  P388 leukemia ip, CD2F1 mice, survival T/C  102 % of control
30    C(#CP(C#Cc1ccccc1)C#Cc1ccccc1)c1ccccc1  P388 leukemia ip, CD2F1 mice, survival T/C  103 % of control
31  COP(=O)(CC(=O)NCc1cc(C(C)(C)C)c(O)c(C(C)(C)C)c1)OC  P388 leukemia ip, CD2F1 mice, survival T/C  110 % of control
32  CC(CCC(=O)O)C1CCC2C3CCC4CC(OC=O)CCC4(C)C3CC(OC=O)C12C (stereo not drawn)  P388 leukemia ip, CD2F1 mice, survival T/C   95 % of control
33           CCOC(=O)C(=Cc1ccccc1Cl)C(=O)OCC  P388 leukemia ip, CD2F1 mice, survival T/C  110 % of control
34  C[C@]12CC[C@@H](OC(=O)N(CCCl)N=O)C[C@@H]1CC[C@@H]1[C@@H]2CC[C@]2(C)C(=O)CC[C@@H]12  P388 leukemia ip, CD2F1 mice, survival T/C   97 % of control
35                    CCOC(=S)NC(=O)c1ccccc1  P388 leukemia ip, CD2F1 mice, survival T/C   99 % of control
36                            Cc1cc(N)ccc1Cl  P388 leukemia ip, CD2F1 mice, survival T/C  110 % of control
37                      NC(=S)N/N=C/c1ccncc1  P388 leukemia ip, CD2F1 mice, survival T/C   98 % of control
38            c1ccc2c(c1)Nc1c(ccc3ccccc13)S2  P388 leukemia ip, CD2F1 mice, survival T/C   95 % of control
39                    CCOC(=O)NC(=S)Nc1cccs1  P388 leukemia ip, CD2F1 mice, survival T/C   91 % of control
40        CC1=CC(C)(C)Nc2ccc(CSc3ccccc3)cc21  P388 leukemia ip, CD2F1 mice, survival T/C  104 % of control
41  CCOC(=O)C1Cc2nc(-c3ccccc3)ncc2C1=O (stereo not drawn)  P388 leukemia ip, CD2F1 mice, survival T/C  101 % of control
42  Cc1ccc([N+](=O)[O-])cc1NC(=O)Oc1cc(C)c(Br)c(C)c1  P388 leukemia ip, CD2F1 mice, survival T/C  106 % of control
43                    CC(=O)OC[N+]1(C)CCCCC1  P388 leukemia ip, CD2F1 mice, survival T/C  111 % of control
44               CN(C)S(=O)(=O)Nc1cccc(Br)c1  P388 leukemia ip, CD2F1 mice, survival T/C  103 % of control
45  CCOC(=O)C(=O)C1CC(c2ccccc2)=NNC1=O (stereo not drawn)  P388 leukemia ip, CD2F1 mice, survival T/C   99 % of control
46  Cc1c(C)c(C)c2c(c1C)C(=O)c1c3c(c4c(c1C2=O)CCCC4)CCCC3  P388 leukemia ip, CD2F1 mice, survival T/C  103 % of control
47  CC1CN(C(=O)Nc2c(C(C)C)cccc2C(C)C)CC(C)O1 (stereo not drawn)  P388 leukemia ip, CD2F1 mice, survival T/C   96 % of control
